Tested on: wheat (Triticum aestivum)
Assay: Test A postemergence, visual injury rating 0-100
Assay type: in vivo
Conditions: 125 g ai/ha, 0 to 100 scale
# reported Wheat plant response rating; entries follow

COMPOUND: COc1ccc(C2CC(C)=[N+]([O-])C2C(=O)Nc2cccc(F)c2F)cc1C(F)(F)F (racemic) [Compound 74]
TARGET SYSTEM: wheat (Triticum aestivum)
Wheat plant response rating: 60
--
COMPOUND: CC1=[N+]([O-])C(C(=O)Nc2cccc(F)c2F)C(c2ccccc2)C1 (stereo not shown) [Compound 97]
TARGET SYSTEM: wheat (Triticum aestivum)
Wheat plant response rating: 10
--
COMPOUND: CC1=[N+]([O-])C(C(=O)Nc2cccc(C#N)c2F)C(c2ccc(C(F)(F)F)cc2)C1 (racemic) [Compound 28]
TARGET SYSTEM: wheat (Triticum aestivum)
Wheat plant response rating: 0
--
COMPOUND: CC1=[N+]([O-])C(C(=O)Nc2cccc(F)c2F)C(c2cccc(Cl)c2F)C1 (stereo not shown) [Compound 99]
TARGET SYSTEM: wheat (Triticum aestivum)
Wheat plant response rating: 0
--
COMPOUND: CC1=[N+]([O-])[C@@H](C(=O)Nc2cccc(F)c2F)[C@H](c2cccc(Oc3ncc(F)cc3F)c2)C1 [Compound 70]
TARGET SYSTEM: wheat (Triticum aestivum)
Wheat plant response rating: 0
--
COMPOUND: CC1=[N+]([O-])C(C(=O)Nc2cccc(F)c2F)C(c2cc(C)ccc2C)C1 (racemic) [Compound 79]
TARGET SYSTEM: wheat (Triticum aestivum)
Wheat plant response rating: 20
--
COMPOUND: CC1=[N+]([O-])C(C(=O)Nc2cccc(F)c2F)C(c2ccc(F)cc2)C1 (racemic) [Compound 9]
TARGET SYSTEM: wheat (Triticum aestivum)
Wheat plant response rating: 0
